System: G. duodenalis BRIS/91/HEPU/1279
assay-procedure: Primary Giardia screen at 10 µM (live-cell imaging, automated counting)
Type: cell-based, Giardia duodenalis
condition-details: 48 h, first singlicate assay
For each entry below, report its % Inhibition n=1 48h value.
Report only the number, with the unit % understood.

Any idea what its % Inhibition n=1 48h is? The compound is Cc1ccc(S(=O)(=O)NC(C)c2nc(-c3cccc(C(=O)N4CCCC4)c3)no2)cc1 (centres unmarked) [SN00789753] 5.7

Any idea what its % Inhibition n=1 48h is? The compound is CC(C)(C)c1cc2nc(-c3ccccc3)cc(C(=O)NC3CCCCNC3=O)n2n1 (centres unmarked) [SN00802787] 0.0

Any idea what its % Inhibition n=1 48h is? The compound is O=C(C1CCCN1S(=O)(=O)c1ccc(Br)cc1)N1CCCCC1 (centres unmarked) [SN00774966] 3.8

Any idea what its % Inhibition n=1 48h is? The compound is O=c1onc(-c2cccnc2)n1Cc1noc(C2CC2)n1 [SN00772712] 0.0

Any idea what its % Inhibition n=1 48h is? The compound is Cc1cccc(NC(=O)Nc2cc(F)c3[nH]c(=O)ccc3c2)c1C [SN00795412] 0.0

---

For each entry below, report its pIC50 value.
System: G. duodenalis BRIS/91/HEPU/1279
assay-procedure: Giardia dose response assay, assemblage B
Format: cell-based, Giardia duodenalis
condition-details: Giardia duodenalis, 24 h, read-out: G. duodenalis IC50 24h, Table S2; 24 h; ±SD; max 10 µM
// field semantics: pIC50 = negative decimal log of concentration (mol/L)

Any idea what its pIC50 is? The compound is CC(=O)Nc1ccc([N+](=O)[O-])c2nonc12 [SN00783960, CC(=O)Nc1ccc(N(=O)=O)c2nonc12] 5.51

Any idea what its pIC50 is? The compound is O=[N+]([O-])c1cc(F)ccc1Sc1nnc(N2CCOCC2)s1 [SN00781107, Fc1ccc(Sc2nnc(s2)N2CCOCC2)c(c1)N(=O)=O] 5.16

Any idea what its pIC50 is? The compound is Cc1ccc(C)c(-c2cc3c4nn(CC(=O)N(C)c5ccc(F)cc5)c(=O)n4ccn3n2)c1 [SN00790641] 5.55

---

Tested on: BRIS/87/HEPU/713
assay-procedure: Giardia dose response assay, assemblage A
Type: cell-based
condition-details: Giardia duodenalis, 48 h, read-out: 48 h IC50
measured-parameter: IC50 (nM)
Report only the number, with the unit nM understood.

Any idea what its IC50 is? The compound is "Cc1ccc(C(=O)Nc2ccc3c(c2)N(C)C(=O)c2ccccc2O3)cc1" 115

---

For each entry below, report its % Inhibition n=1 48h value.
Tested on: G. duodenalis BRIS/91/HEPU/1279
assay-procedure: Primary Giardia screen at 10 µM (live-cell imaging, automated counting)
Assay type: cell-based, Giardia duodenalis
condition-details: 48 h, first singlicate assay
Report only the number, with the unit % understood.

Any idea what its % Inhibition n=1 48h is? The compound is "Cn1nnc2cc(CNC(=O)c3ccc(F)cc3)ccc21" 3.3

Any idea what its % Inhibition n=1 48h is? The compound is "CS(=O)(=O)c1nccn1Cc1ccccn1" 1.6

Any idea what its % Inhibition n=1 48h is? The compound is CC(c1nnc(-c2cccs2)o1)N1CCc2cncnc2C1 (stereo not shown) 12.9

Any idea what its % Inhibition n=1 48h is? The compound is CN(CC1CCOC1)C(=O)Cc1ccccc1 (stereo not shown) 0.0

Any idea what its % Inhibition n=1 48h is? The compound is "O=C(c1ccco1)N1CCC(OCc2nc(-c3ccncc3)no2)CC1" 18.6

Any idea what its % Inhibition n=1 48h is? The compound is "CC(C)CC(=O)NCc1nc2cccnc2n1Cc1ccc(F)cc1" 8.4

Any idea what its % Inhibition n=1 48h is? The compound is CCn1cc(CN2CCCN(C(=O)C(C)n3cncn3)CC2)cn1 (stereo not shown) 0.0

Any idea what its % Inhibition n=1 48h is? The compound is Cc1csc(-c2cc(S(=O)(=O)N3c4ccccc4CC3C)c(C)n2C)n1 (stereo not shown) 71.5

Any idea what its % Inhibition n=1 48h is? The compound is "C/C(=C/C(=O)N1CCN(C(=O)c2ccc3[nH]cnc3c2)CC1)C1CC1" 5.9

Any idea what its % Inhibition n=1 48h is? The compound is O=C1OCCN1CCCN1CCCC(c2nc3ccccc3o2)C1 (stereo not shown) 0.0
